Where these numbers come from: patent US12258342B2

biological target: E. coli DNA gyrase (Escherichia coli (strain K12), UniProt P0AES6); experiment: DNA gyrase inhibition assay (Inspiralis, streptavidin-coated plates)
The reader will find reported IC50 values listed item by item below.
# unit: nM | format: bare number

>  <COMPOUND>
Cc1[nH]c(C(=O)Nc2nc3ccc(C(=O)NCCC(=O)O)cc3s2)c(Cl)c1Cl [Example 22]

>  <VALUE MEASURED>
7

$$$$

Now consider the entry below.
INPUT: Look up IC50 with E. coli DNA gyrase (Escherichia coli (strain K12), UniProt P0AES6) for this compound: Cc1[nH]c(C(=O)Nc2nc3ccc(C(=O)O)c(Cl)c3s2)c(Cl)c1Cl [Example 14]
OUTPUT: 310
